# protocol_text: Biodistribution of 99mTc complexes in mice
# Format: in vivo, Balb/c mice
# conditions_used: 5 min
endpoint: biodistribution muscle (% Injected dose)

| compound | endpoint | test_value |
| --- | --- | --- |
| Nc1ccc(O)c(NC(=O)CN(CCN(CC(=O)O)CC(=O)Nc2cc(N)ccc2O)CC(=O)O)c1 [Compound 5] | biodistribution muscle | 11.74 |
| O=C(O)CN(CCN(CC(=O)O)CC(=O)Nc1ccccc1O)CC(=O)Nc1ccccc1O [Compound 1] | biodistribution muscle | 9.81 |
| Cc1cc(C)c(O)c(NC(=O)CN(CCN(CC(=O)O)CC(=O)Nc2cc(C)cc(C)c2O)CC(=O)O)c1 [Compound 6] | biodistribution muscle | 7.24 |
| CC(C)(C)c1ccc(O)c(NC(=O)CN(CCN(CC(=O)O)CC(=O)Nc2cc(C(C)(C)C)ccc2O)CC(=O)O)c1 [Compound 4] | biodistribution muscle | 7.77 |
| O=C(O)CN(CCN(CC(=O)O)CC(=O)Nc1ccc(Cl)cc1O)CC(=O)Nc1ccc(Cl)cc1O [Compound 2] | biodistribution muscle | 6.73 |
